experiment: solvent given as SMILES; conditions: in ClC(Cl)Cl
MEASURED_QUANTITY: emission maximum

- COMPOUND: "Cc1cc2c(o1)=CC1=C(C(F)(F)F)c3cc4oc(C)cc4n3[B-](F)(F)[N+]=21"
  TEST_RESULT: "620 nm"
- COMPOUND: "Cc1cc(C)c(C2=C3C=CC(c4ccccc4O)=[N+]3[B-]3(c4ccccc4)Oc4ccccc4-c4ccc2n43)c(C)c1 (centres undefined)"
  TEST_RESULT: "614 nm"
- COMPOUND: "COc1ccc2cc(C#N)c3ccc4ccccc4c3c2c1"
  TEST_RESULT: "415 nm"
- COMPOUND: "CCCCCCc1ccc(-n2c3c4cccc(OC)c4nc(-c4ccc(OC)cc4)c3c3c2c2c(-c4ccc(OC)cc4)nc4c(OC)cccc4c2n3-c2ccc(CCCCCC)cc2)cc1"
  TEST_RESULT: "453 nm"
- COMPOUND: "Oc1ccc(C2=[N+]3C(=C(c4ccccc4)c4cccn4[B-]3(F)F)C=C2)cc1"
  TEST_RESULT: "564 nm"
- COMPOUND: "CCCCCCc1sc(CCCCCC)c2c3ccsc3c3sccc3c12"
  TEST_RESULT: "425 nm"
- COMPOUND: "CCCCOC(=O)/C(C#N)=C1\\C(=CC2=[N+](C)c3ccccc3C2(C)C)C([O-])=C1C=C1N(C)c2ccccc2C1(C)C"
  TEST_RESULT: "708 nm"
- COMPOUND: "Cc1ccccc1C1CC(=O)Oc2c1c1nc3ccccc3nc1c1ccccc21 (centres undefined)"
  TEST_RESULT: "434 nm"
- COMPOUND: "c1cc2ccc3[se]c4ccc5cccc6c(c1)c2c3c4c56"
  TEST_RESULT: "424 nm"

Data credit: the Deep4Chem optical property database
